Where these numbers come from: ChEMBL document CHEMBL4138098

assayed.system: GABA-A receptor; alpha-1/beta-2/gamma-2 (Homo sapiens, UniProt P14867+P18507+P47870)
Sequence (P14867 whole entry): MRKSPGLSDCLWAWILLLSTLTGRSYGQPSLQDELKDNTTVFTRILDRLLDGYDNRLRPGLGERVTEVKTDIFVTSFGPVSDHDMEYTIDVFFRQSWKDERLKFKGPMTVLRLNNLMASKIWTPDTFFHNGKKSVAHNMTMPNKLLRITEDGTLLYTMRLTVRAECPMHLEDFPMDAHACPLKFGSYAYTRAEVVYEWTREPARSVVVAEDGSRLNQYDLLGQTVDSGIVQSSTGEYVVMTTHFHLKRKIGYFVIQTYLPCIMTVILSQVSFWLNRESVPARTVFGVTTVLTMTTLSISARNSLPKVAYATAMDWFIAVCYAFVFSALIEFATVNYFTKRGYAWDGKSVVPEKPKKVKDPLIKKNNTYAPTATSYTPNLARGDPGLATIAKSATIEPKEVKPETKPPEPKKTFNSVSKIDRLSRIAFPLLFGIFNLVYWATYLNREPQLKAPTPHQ
Sequence (P47870 whole entry): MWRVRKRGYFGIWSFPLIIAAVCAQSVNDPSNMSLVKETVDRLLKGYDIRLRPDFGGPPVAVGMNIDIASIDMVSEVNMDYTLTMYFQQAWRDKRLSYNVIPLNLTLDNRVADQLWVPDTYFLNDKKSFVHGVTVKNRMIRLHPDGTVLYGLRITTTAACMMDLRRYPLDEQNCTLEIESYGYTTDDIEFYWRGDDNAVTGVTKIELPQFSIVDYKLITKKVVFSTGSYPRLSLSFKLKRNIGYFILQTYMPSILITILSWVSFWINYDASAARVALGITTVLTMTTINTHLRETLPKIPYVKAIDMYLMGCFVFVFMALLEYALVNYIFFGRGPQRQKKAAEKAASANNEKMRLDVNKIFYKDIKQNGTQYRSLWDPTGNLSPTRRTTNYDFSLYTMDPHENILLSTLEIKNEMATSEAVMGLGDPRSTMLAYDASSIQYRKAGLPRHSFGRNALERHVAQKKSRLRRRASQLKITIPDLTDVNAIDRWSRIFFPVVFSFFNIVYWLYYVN
Sequence (P18507 whole entry): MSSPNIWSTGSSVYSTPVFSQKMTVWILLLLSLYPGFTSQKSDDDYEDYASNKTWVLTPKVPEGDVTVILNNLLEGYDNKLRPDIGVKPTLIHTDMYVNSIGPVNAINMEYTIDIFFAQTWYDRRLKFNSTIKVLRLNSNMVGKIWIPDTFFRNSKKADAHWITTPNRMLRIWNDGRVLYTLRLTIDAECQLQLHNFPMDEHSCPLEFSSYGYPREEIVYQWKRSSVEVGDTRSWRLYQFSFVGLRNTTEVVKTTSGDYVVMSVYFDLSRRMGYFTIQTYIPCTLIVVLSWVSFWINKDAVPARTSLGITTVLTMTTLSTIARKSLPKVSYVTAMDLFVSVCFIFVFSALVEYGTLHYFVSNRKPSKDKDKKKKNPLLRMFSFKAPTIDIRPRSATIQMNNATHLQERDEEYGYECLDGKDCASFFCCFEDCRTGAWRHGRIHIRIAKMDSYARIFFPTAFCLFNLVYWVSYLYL
experiment.description: Positive allosteric modulation of human GABAA receptor alpha1beta2gamma2L expressed in Xenopus laevis oocytes assessed as potentiation of GABA chloride current incubated for 15 to 25 secs by two-electrode voltage clamp assay
metric.name: EC50 (nM)
Kindly answer with a numeric value in nM, unit omitted.

[[record]]
line_notation = "CC(=O)[C@H]1CC[C@H]2[C@@H]3CC[C@H]4C[C@H](O)CC[C@]4(C)[C@H]3[C@@H](OC(=O)c3c(F)c(F)c(N=[N+]=[N-])c(F)c3F)C[C@]12C"
reading = 500


Return reported EC50; argument: CC(=O)[C@H]1CC[C@H]2[C@@H]3CC[C@H]4C[C@H](O)CC[C@]4(C)[C@H]3C3(C[C@]12C)N=N3
200
